- System: Hepatotoxicity
- EXPERIMENT: FDA HLAED, lactate dehydrogenase (LDH) increase
- TEST_SETTINGS: human
RECORDED_ENDPOINT: LDH Increase - Number of Reports

Check out these entries, answers already filled in.
1) O=c1[nH]cc(F)c(=O)[nH]1 = >= 4
2) O=C(NCC(O)CO)c1c(I)c(C(=O)NCC(O)CO)c(I)c(N(CCO)C(=O)CO)c1I (stereo unspecified) = < 4
3) CCN(CC)CCNC(=O)c1ccc(N)cc1 [PROCAINAMIDE] = < 4
4) NCCCC(O)(P(=O)(O)O)P(=O)(O)O = >= 4
5) CC(C)C[C@H]1C(=O)N2CCC[C@H]2[C@]2(O)O[C@](NC(=O)[C@@H]3C=C4c5cccc6[nH]c(Br)c(c56)C[C@H]4N(C)C3)(C(C)C)C(=O)N12 = < 4

Input: # input molecule: CNCC(O)c1ccc(OC(=O)C(C)(C)C)c(OC(=O)C(C)(C)C)c1 (stereo unspecified) ; wanted: its LDH Increase - Number of Reports
Output: < 4
